# system: Human recombinant MMP-13 (Homo sapiens)
# assay procedure: In vitro MMP inhibition assay, MMP-13 (fluorogenic peptide substrate cleavage, Ki)
# condition info: human MMP-13, full length (FL); read-out: hMMP Ki 13/FL
pKi: −log10 of the molar value. Where a name gives a salt, the structure may show the parent alone.
Everything with pKi lower than 9 is Not fulfilled; everything else, including exactly 9, is Fulfilled.

stdin: Is it the case that COc1cccc(CNC(=O)c2nc3ccc(F)c(OC[C@H]4CO[C@H](CO)CO4)c3c(=O)[nH]2)c1 (relative stereo) [Example 3] has pKi reaching or exceeding 9?
stdout: Not fulfilled

stdin: In plain terms: is recorded pKi at least 9 for COc1cccc(CNC(=O)c2nc3ccc(F)c(OCCC4CCN(S(C)(=O)=O)CC4)c3c(=O)[nH]2)c1 [Example 31] ?
stdout: Fulfilled

stdin: Can COc1cccc(CNC(=O)c2nc3scc(COC[C@H]4CC[C@H](CO)CC4)c3c(=O)[nH]2)c1 [Example 4] be said to have pKi at or above 9?
stdout: Fulfilled

stdin: Could you tell me if the measured pKi of COc1cccc(CNC(=O)c2nc3scc(COCCC4CCNCC4)c3c(=O)[nH]2)c1 [Example 26, hydrochloride] reaches 9 or more?
stdout: Not fulfilled

stdin: Please tell me: is the compound COc1cccc(CNC(=O)c2nc3ccc(F)c(OC[C@@H]4CO[C@@H](CN)CO4)c3c(=O)[nH]2)c1 (relative stereo) [Example 36] at or over 9 in terms of pKi?
stdout: Not fulfilled

stdin: Entry COc1cccc(CNC(=O)c2nc3ccc(F)c(OCCC4CCN(CCO)CC4)c3c(=O)[nH]2)c1 [Example 35] : is its pKi no less than 9?
stdout: Not fulfilled

stdin: Check this compound for pKi at or above 9: COc1cc(CNC(=O)c2nc3scc(COC[C@H]4CC[C@H](C(=O)O)CC4)c3c(=O)[nH]2)ccc1F [Example 10]
stdout: Fulfilled

stdin: Item COc1cccc(CNC(=O)c2nc3ccc(F)c(OCCC4CCNCC4)c3c(=O)[nH]2)c1 [Example 30] with pKi of 9 or above?
stdout: Not fulfilled
